system under test: T1, cyno activated protein C (cyno (monkey))
T1 construct: also called cyno aPC; cyno APC
test details: ELISA, coated antigen
quantity name: pEC50
As a rule, pEC50 stands for the negative log10 of the concentration, concentration in M.

Looking up Hu1573-9 (antibody, V domains shown, Humanized IgG, human gamma 1 / kappa constant regions by vectors pCP-hCg1 and pCP-hck; also called H1573VH.1D + H1573Vk.2) VH: EVQLVESGGGLVQPGGSLRLSCAASGFTFSNYYLNWVRQAPGKGLEWVGDIRLKSNNYEKHYAESVKGRFTISRDDSKSSLYLQMNSLKTEDTAVYYCIREGDYFDYWGQGTTVTVSS VL: DIVMTQTPLSLSVTPGQPASISCRASESVDSFGATFMHWYLQKPGQPPQLLIYLASNLESGVPDRFSGSGSGTDFTLKISRVEAEDVGVYYCQQNNEDPYTFGQGTKLEIKR , I see its pEC50 listed as 9.01
